# ASSAYED TARGET: human dopamine transporter (Homo sapiens (Human))
# Sequence (Q01959 whole entry): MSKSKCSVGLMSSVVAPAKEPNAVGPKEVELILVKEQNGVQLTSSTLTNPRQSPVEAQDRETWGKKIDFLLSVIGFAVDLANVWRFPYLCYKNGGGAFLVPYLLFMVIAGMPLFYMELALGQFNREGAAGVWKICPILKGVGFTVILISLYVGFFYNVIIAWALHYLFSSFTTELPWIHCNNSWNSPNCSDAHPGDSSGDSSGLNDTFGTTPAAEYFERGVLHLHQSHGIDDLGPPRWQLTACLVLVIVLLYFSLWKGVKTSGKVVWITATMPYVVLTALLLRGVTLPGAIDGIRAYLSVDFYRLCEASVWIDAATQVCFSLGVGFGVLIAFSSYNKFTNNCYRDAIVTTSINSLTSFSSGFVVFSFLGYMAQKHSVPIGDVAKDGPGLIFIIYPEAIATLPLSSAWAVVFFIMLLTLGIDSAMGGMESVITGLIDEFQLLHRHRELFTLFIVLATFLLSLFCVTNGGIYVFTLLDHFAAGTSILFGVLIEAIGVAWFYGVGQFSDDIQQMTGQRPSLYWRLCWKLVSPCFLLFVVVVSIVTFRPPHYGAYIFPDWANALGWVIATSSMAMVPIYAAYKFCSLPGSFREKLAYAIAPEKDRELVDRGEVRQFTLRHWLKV
# ASSAY NOTES: Human DAT (dopamine transporter) uptake assay
# Format: cell-based
# SETUP CONDITIONS: read-out: hDAT Ki
REPORTED PROPERTY: Ki (µM)

Worked cases, answers included:
COMPOUND	TEST RESULT
CN1CO[C@H](c2ccccc2)[C@@H](c2ccc3ccccc3c2)C1	0.0109
CNC[C@@H](c1ccc2ccccc2c1)[C@H](O)c1cc(F)cc(F)c1	0.0953
CNCC(C[C@H](O)c1ccccc1)c1ccc2ccccc2c1 (stereo partly drawn)	0.247
CN1C[C@H](c2ccc3ccccc3c2)[C@@H](c2ccccc2)OCC1=O	0.0435
CNC[C@H](c1ccc(Cl)c(Cl)c1)[C@@H](O)c1cccc(Br)c1	0.103

a: CNC[C@@H](c1ccc(Cl)c(Cl)c1)[C@@H](O)c1cncc(OC)c1
b: CNC[C@@H](c1ccc(Cl)c(Cl)c1)[C@@H](OC)c1cccc(NS(=O)(=O)C(F)(F)F)c1
Q: Looking at recorded values for Ki, does a or b come in lower? Respond with the label that goes with your answer.
A: a
(a: 0.0667 µM, b: 0.102 µM)

I: CNC[C@H](C[C@H](O)c1ccccc1)c1ccc2ccccc2c1
II: CNC[C@H](c1ccc2ccccc2c1)[C@@H](O)c1ccncc1Cl
Q: Looking at recorded values for Ki, does I or II come in lower? Respond with the label that goes with your answer.
A: II
(II: 0.0066 µM, I: 0.137 µM)

###

# ASSAY NOTES: pKa of basic centres (Table 1)
# Type: physicochemical
# SETUP CONDITIONS: first base, e.g., an aliphatic primary, secondary, or tertiary amine; read-out: pKa (Base 1)
REPORTED PROPERTY: pKa

MOLECULE	pKa
CNCC(Cc1cccnc1)c1ccc(Cl)c(Cl)c1 (racemic)	9.6
NCC(c1ccc2ccccc2c1)[C@@H](O)c1ccccc1 (stereo partly shown)	8.7
CNCC(c1ccc(F)c(Cl)c1)[C@H](O)c1ccccc1 (stereo partly shown)	9.3
CNC[C@H](c1ccc(Cl)c(Cl)c1)[C@H](O)c1ccccc1OC	9.4

###

# ASSAYED TARGET: UniProt P08684
# Sequence (P08684 whole entry): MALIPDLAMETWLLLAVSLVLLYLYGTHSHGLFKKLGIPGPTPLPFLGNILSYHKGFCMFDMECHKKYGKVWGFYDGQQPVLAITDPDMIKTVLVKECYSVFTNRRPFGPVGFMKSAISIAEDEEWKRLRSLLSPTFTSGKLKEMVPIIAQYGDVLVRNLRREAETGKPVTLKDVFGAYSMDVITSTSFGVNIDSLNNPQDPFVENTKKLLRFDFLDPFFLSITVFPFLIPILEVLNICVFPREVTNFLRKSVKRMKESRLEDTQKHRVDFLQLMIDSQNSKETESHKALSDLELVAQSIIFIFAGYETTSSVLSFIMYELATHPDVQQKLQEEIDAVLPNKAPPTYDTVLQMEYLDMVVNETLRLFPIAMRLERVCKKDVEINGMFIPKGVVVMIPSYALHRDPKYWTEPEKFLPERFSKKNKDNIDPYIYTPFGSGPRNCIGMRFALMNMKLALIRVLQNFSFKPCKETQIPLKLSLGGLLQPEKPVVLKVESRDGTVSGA
# ASSAY NOTES: Cytochrome P450 inhibition assay, recombinant CYP3A4 (BFC substrate)
# SETUP CONDITIONS: recombinant enzyme
pIC50: −log10 of the molar value.
REPORTED PROPERTY: pIC50

COMPOUND	REPORTED PROPERTY	TEST RESULT
CNC[C@H](c1ccc2ccccc2c1)[C@H](OCC(=O)N1CC[C@H](O)C1)c1ccccc1	pIC50	4.70
CNC[C@H](c1ccc2ccccc2c1)[C@H](OCc1nc(C)no1)c1ccccc1	pIC50	4.70
CNC[C@H](c1ccc2ccccc2c1)[C@H](OCCO)c1ccccc1	pIC50	4.70
CNC[C@H](c1ccc(Cl)c(Cl)c1)[C@@H](O)c1cccc(Br)c1	pIC50	5.04
CNC[C@H](c1ccc2ccccc2c1)[C@H](O)c1ccncc1	pIC50	4.70
CNC[C@H](c1ccc2ccccc2c1)[C@@H](F)c1ccccc1	pIC50	5.17

a: C[C@](CN)(Cc1cccnc1)c1ccc2ccccc2c1
b: CNCC(Cc1cccs1)c1ccc2ccccc2c1 (racemic)
Q: Looking at recorded values for pIC50, does a or b come in lower? Respond with the label that goes with your answer.
A: b

###

The entries below are paired with their reported pIC50.
# ASSAYED TARGET: CYP2D6 (Homo sapiens (Human))
# ASSAY NOTES: Cytochrome P450 inhibition assay, recombinant CYP2D6 (MAMC substrate)
# Format: in vitro ADME
# SETUP CONDITIONS: recombinant enzyme
Formally, pIC50 is defined as -log10 of the concentration c, with c in mol/L.

Worked cases, answers included:
COMPOUND	ASSAYED TARGET	pIC50
CNC[C@@H](c1ccc(Cl)c(Cl)c1)[C@@H](O)c1ccsc1 [Compound 106]	CYP2D6 (Homo sapiens (Human))	5.41
CNC[C@H](c1ccc2ccccc2c1)[C@H](F)c1ccccc1 [Compound 9]	CYP2D6 (Homo sapiens (Human))	6.68

Q: What reported pIC50 corresponds to CNC[C@H](c1ccc(Cl)c(Cl)c1)[C@H](O)c1ccccc1I [Compound 164] on CYP2D6 (Homo sapiens (Human))?
A: 6.60

###

# ASSAYED TARGET: CYP2D6 (Homo sapiens (Human), UniProt P10635)
# Sequence (P10635 whole entry): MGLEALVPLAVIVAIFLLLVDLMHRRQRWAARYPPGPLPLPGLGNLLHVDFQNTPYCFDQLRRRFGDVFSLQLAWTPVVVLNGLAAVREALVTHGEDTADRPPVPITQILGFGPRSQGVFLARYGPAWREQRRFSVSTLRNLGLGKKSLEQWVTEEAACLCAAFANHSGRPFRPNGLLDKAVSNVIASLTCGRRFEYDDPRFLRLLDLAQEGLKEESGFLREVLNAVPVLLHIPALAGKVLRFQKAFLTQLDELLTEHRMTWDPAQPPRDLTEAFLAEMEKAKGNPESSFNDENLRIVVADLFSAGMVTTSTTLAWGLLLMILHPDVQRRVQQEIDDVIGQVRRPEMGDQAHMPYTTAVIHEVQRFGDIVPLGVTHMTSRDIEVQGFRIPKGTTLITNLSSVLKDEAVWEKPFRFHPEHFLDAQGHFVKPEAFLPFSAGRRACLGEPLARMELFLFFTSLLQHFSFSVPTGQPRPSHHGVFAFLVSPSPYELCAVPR
# ASSAY NOTES: Cytochrome P450 inhibition assay, recombinant CYP2D6 (MAMC substrate)
# SETUP CONDITIONS: recombinant enzyme
REPORTED PROPERTY: IC50 (nM)

COMPOUND	UNIT TAG	TEST RESULT
CNC[C@H](c1ccc2ccccc2c1)[C@H](O)c1cc(F)cc(F)c1 (racemic)	nM	130
CNC[C@H](c1ccc(Cl)c(Cl)c1)[C@H](O)c1cccc(I)c1 (single isomer, unassigned)	nM	130
CNC[C@H](c1ccc2ccccc2c1)[C@H](O)c1ccccc1F	nM	200

a: CN1CO[C@H](c2ccccc2)[C@@H](c2ccc3ccccc3c2)C1
b: CNCC(Cc1cccnc1)c1ccc2ccccc2c1 (stereo not drawn) [Compound 48]
Q: Looking at recorded values for IC50, does a or b come in lower? Respond with the label that goes with your answer.
A: a
(a: 300 nM, b: 580 nM)

###

# ASSAYED TARGET: human dopamine transporter (Homo sapiens (Human))
# ASSAY NOTES: Human DAT (dopamine transporter) uptake assay
# Format: cell-based
# SETUP CONDITIONS: read-out: hDAT Ki
REPORTED PROPERTY: Ki (nM)

Worked cases, answers included:
MOLECULE	Ki [nM]
CNC[C@@H](c1ccc(Cl)c(Cl)c1)[C@@H](O)c1cccc(OC)n1	53.4
CNC[C@@H](c1ccc(Cl)c(Cl)c1)[C@@H](O)c1cccc([S+](C)[O-])c1 (single isomer, unassigned)	39.7
CNC[C@H](c1ccc(Br)c(Cl)c1)[C@H](O)c1ccccc1 (racemic)	7.3
CNC[C@H](c1ccc2ccccc2c1)[C@H](OC)c1ccccc1	37.5
CNC[C@H](c1ccc2ccccc2c1)[C@H](OCc1nc(C)no1)c1ccccc1	69.7
CNCC(c1ccc2ccccc2c1)[C@H](CO)c1ccccc1 (single isomer, unassigned)	106
CNC[C@H](c1ccc2ccccc2c1)[C@@H](O)c1ccccc1F	83.2
CNC[C@H](c1ccc(Cl)c(Cl)c1)[C@@H](O)c1cccc(SC)c1	110

a: CNC[C@@H](c1ccc2ccccc2c1)[C@H](O)c1ccccn1 (racemic) [Compound 72]
b: CNCC(Cc1ccccc1C)c1ccc2ccccc2c1 (stereo not shown) [Compound 134]
Q: In the pair a and b , the larger recorded Ki belongs to which? Respond with the label that goes with your answer.
A: a
(a: 100 nM, b: 56.8 nM)

###

# ASSAYED TARGET: human norepinephrine transporter (Homo sapiens (Human))
# Sequence (P23975 whole entry): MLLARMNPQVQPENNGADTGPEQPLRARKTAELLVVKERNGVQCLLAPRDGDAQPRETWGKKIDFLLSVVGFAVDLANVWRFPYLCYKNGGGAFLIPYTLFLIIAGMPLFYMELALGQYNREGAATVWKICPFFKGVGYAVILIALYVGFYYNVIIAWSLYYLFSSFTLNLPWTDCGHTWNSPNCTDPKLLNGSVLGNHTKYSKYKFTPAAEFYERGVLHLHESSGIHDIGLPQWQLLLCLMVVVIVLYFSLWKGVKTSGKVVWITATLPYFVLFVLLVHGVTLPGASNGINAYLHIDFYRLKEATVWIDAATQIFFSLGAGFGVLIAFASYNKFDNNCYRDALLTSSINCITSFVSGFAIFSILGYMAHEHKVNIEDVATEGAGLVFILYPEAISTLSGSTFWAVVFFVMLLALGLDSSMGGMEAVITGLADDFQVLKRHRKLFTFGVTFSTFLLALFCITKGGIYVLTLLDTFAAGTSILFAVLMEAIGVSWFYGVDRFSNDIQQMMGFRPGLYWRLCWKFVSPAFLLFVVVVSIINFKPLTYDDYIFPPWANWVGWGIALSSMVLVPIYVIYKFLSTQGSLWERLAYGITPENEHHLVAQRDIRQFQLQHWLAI
# ASSAY NOTES: Human NET (norepinephrine transporter) uptake assay
# Type: cell-based
# SETUP CONDITIONS: comparison in words, used to assign configuration
# Procedure: This protocol was designed to measure inhibition of uptake by the human norepinephrine transporter. […] The Assay Buffer (AB) was 1×HBSS and 0.02 M HEPES. The HEK293F cells were transfected with the human norepinephrine transporter and frozen in 1 mL aliquots at about 1E+07 cells/mL. On the day of the experiment, the cells were removed from −80° C. or liquid nitrogen and thawed in a room temperature water bath. […] A 1 mL sample (1:2 dilution) was prepared, and the cells were counted. […]
REPORTED PROPERTY: potency at hNET relative to the other enantiomer or epimer

Worked cases, answers included:
COMPOUND	TEST RESULT
CNC[C@@H](c1ccc(Cl)c(Cl)c1)[C@H](O)c1cccc(NC(C)=O)c1	less potent
CNCC(c1ccc(Br)c(Cl)c1)[C@H](O)c1ccccc1 (stereo partly drawn)	more potent
C[C@](CN)(Cc1cccnc1)c1ccc2ccccc2c1	more potent
CNC[C@@H](Cc1ccc(C)s1)c1ccc2ccccc2c1	higher potency

Q: What does the data say about its potency at hNET relative to the other enantiomer or epimer? Entry: CNC[C@H](c1ccc(Cl)c(Cl)c1)[C@@H](O)c1cccc(I)c1
A: higher potency

###

# ASSAYED TARGET: human serotonin transporter (Homo sapiens (Human), UniProt P31645)
# Sequence (P31645 whole entry): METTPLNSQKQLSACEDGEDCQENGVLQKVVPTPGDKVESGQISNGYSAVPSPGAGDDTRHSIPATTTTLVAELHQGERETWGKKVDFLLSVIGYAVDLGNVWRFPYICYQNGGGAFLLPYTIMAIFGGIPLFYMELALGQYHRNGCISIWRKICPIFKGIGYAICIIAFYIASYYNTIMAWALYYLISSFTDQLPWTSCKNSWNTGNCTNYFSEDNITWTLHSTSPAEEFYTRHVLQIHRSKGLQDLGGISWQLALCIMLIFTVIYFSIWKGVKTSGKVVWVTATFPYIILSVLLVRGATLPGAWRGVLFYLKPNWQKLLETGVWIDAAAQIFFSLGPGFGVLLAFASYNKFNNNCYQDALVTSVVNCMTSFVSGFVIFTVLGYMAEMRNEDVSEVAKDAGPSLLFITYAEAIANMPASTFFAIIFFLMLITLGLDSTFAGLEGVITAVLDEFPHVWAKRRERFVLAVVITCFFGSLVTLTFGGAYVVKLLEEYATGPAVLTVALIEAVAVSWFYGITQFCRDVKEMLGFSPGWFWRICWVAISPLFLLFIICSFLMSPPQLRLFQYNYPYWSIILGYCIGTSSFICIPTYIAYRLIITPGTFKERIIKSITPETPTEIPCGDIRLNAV
# ASSAY NOTES: Human SERT (serotonin transporter) uptake assay
# Type: cell-based
# SETUP CONDITIONS: read-out: hSERT Ki
REPORTED PROPERTY: Ki (nM)

Worked cases, answers included:
COMPOUND	ASSAYED TARGET	Ki (nM)
CNC[C@@H](c1ccc(Cl)c(Cl)c1)[C@@H](O)c1ccsc1 [Compound 153]	human serotonin transporter (Homo sapiens (Human), UniProt P31645)	7.5
CNC[C@@H](c1ccc2ccccc2c1)[C@@H](O)c1ccc2c(c1)OCCO2 (racemic) [Compound 145]	human serotonin transporter (Homo sapiens (Human), UniProt P31645)	9.4
CN(C)C[C@H](c1ccc2ccccc2c1)[C@H](N)c1ccccc1 [Compound 82]	human serotonin transporter (Homo sapiens (Human), UniProt P31645)	15.3
CNC[C@@H](c1ccc2ccccc2c1)[C@H](O)c1ccccc1F [Compound 96]	human serotonin transporter (Homo sapiens (Human), UniProt P31645)	9.9
CNC[C@H](c1ccc2ccccc2c1)[C@H](OCC(=O)N1CC[C@H](O)C1)c1ccccc1 [Compound 19]	human serotonin transporter (Homo sapiens (Human), UniProt P31645)	4.3

P: CNC[C@H](c1ccc(Cl)c(Cl)c1)[C@@H](O)c1ccccc1I [Compound 152]
Q: CNCC(CCc1ccccc1)[C@H](O)c1ccccc1 (stereo partly shown) [Compound 66]
R: CNC[C@H](c1ccc2ccccc2c1)[C@@H](Cl)c1ccccc1 [Compound 61]
Q: # rank_down: sort by Ki, max first Lab note: record answer as labels in requested order.
A: P, Q, R

P: CNC[C@H](c1ccc(Cl)cc1)[C@H](O)c1ccccc1 (racemic) [Compound 148]
Q: C[C@](CN)(Cc1cccnc1)c1ccc2ccccc2c1 [Compound 42]
R: CNC[C@H](c1ccc(Cl)c(Cl)c1)[C@H](O)c1cccc(N)c1 [Compound 24]
S: CNC[C@H](c1ccc(Cl)c(Cl)c1)[C@@H](O)c1cccnc1OC [Compound 104]
Q: # rank_down: sort by Ki, max first Lab note: record answer as labels in requested order.
A: S, P, R, Q

1: CNCC(c1ccc2ccccc2c1)[C@H](CO)c1ccccc1 (single isomer, unassigned) [Compound 25]
2: CN(C)CC(C)(c1ccc2ccccc2c1)C(O)c1ccccc1 (stereo not shown) [Compound 86]
3: CNC[C@H](c1ccc2ccccc2c1)[C@H](OCC(=O)NC1CC1)c1ccccc1 [Compound 13]
4: CNC[C@@H](c1ccc(Cl)c(Cl)c1)[C@@H](O)c1cncc(OC)c1 [Compound 109]
5: CNC[C@@H](c1ccc(Cl)c(Cl)c1)[C@@H](O)c1cccc(SC)c1 [Compound 154]
Q: Your job: order these 5 records by Ki, ascending. Lab note: record answer as labels in requested order.
A: 2, 3, 1, 5, 4
